ASSAY SYSTEM: JAK1 (Homo sapiens (Human))
Sequence (P23458 875-1153): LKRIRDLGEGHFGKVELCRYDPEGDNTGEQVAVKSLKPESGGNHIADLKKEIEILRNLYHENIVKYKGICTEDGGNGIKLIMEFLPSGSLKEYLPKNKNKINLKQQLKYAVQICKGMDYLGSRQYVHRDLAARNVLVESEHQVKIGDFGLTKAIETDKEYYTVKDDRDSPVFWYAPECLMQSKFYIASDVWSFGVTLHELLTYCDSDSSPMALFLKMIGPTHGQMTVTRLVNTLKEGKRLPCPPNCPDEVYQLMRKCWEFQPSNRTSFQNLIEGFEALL
ASSAY OVERVIEW: Jak Biochemical HTRF Assay, JAK1
CONDITION NOTES: HTRF biochemical assay, GST-tagged catalytic domain; top concentration tested […]; read-out: JAK1 IC50
QUANTITY NAME: IC50 (nM)
One number for each entry, in nM.

Worked set:
# COMPOUND, IC50, nM
rows = [
    ("N#CCC1(n2cc(C(N)=O)c(Nc3ccc(S(=O)(=O)C(F)F)cc3)n2)CCC(NCC(F)(F)F)CC1 (stereo not shown) [Example 40-85]", 0.02),
    ("N#CCC1(n2cc(C(N)=O)c(Nc3ccnc(F)c3)n2)CCC(NCc2ccccc2O)CC1 (stereo not shown)", 12),
]

For every listed record, write down its IC50.
1. N#CCC1(n2cc(C(N)=O)c(Nc3ccc(F)cc3)n2)CCN(C(=O)OCCC(F)(F)F)CC1
2. Cc1ccc(NC(=O)N2CC(CC#N)(n3cc(C(N)=O)c(Nc4ccccc4)n3)C2)c(C)c1

Output line:
[3, 23]
